# Test system: SMN2-linked luciferase-reporter gene construct
# protocol: SMN Splice Reporter Assay (SMN2-linked luciferase reporter)
# Format: cell-based
# recorded-conditions: fold-increase of luciferase over baseline reading of transformed cells without any test compound
We begin with a simple list: items and their reported Fold Increase.
measure-name: Fold Increase

CC(C)n1ccc2cc(N3Cc4ccc(Cl)cc4C3=O)ccc21 [Example 125094] : 1.256
COc1ccc2c(c1)CN(c1ccc3ncccc3c1)C2=O [Example 120951] : 1.769
CCOc1ccc2c(c1)C(=O)N(c1ccc3c(ccn3C)c1)C2 [Example 121789] : 1.461
Cn1ccc2cc(N3Cc4ccc(OC5CCCC5)cc4C3=O)ccc21 [Example 121929] : 1.316
COCn1ccc2ccc(N3Cc4ccc(Br)cc4C3=O)cc21 [Example 120430] : 1.374

###

We begin with a simple list: items and their reported Fold Increase.
# Test system: SMN2-linked luciferase-reporter gene construct
# protocol: SMN Splice Reporter Assay (SMN2-linked luciferase reporter)
# Type: cell-based
# recorded-conditions: fold-increase of luciferase over baseline reading of transformed cells without any test compound
measure-name: Fold Increase

COc1ccc2c(c1)C(=O)N(c1ccc3c(c1)CC(=O)N3)C2 : 1.107
Cn1ccc2cc(N3Cc4ccc(NC(=O)c5ccccc5)cc4C3=O)ccc21 : 1.07
O=C1c2cc3c(cc2CN1c1ccc2ccoc2c1)OCCO3 : 1.458
Cn1ccc2ccc(N3Cc4c(Br)cccc4C3=O)cc21 : 1.386
COc1ccc2c(c1)C(=O)N(c1ccc3sc(C)cc3c1)C2 : 1.251
COc1ccc2c(c1)C(=O)N(c1cnc3c(ccn3C)c1)C2 : 1.385
COC(=O)C1CCc2cc(N3Cc4ccccc4C3=O)ccc21 (stereo not shown) : 1.259
COc1ccc2c(c1)C(=O)N(c1ccc3c(c1)c(Br)cn3C)C2 : 1.383
COc1ccc2c(c1)C(=O)N(c1ccc3c(c1)CCN3C)C2 : 1.026
COc1cc2c(cc1OC)C(=O)N(c1ccc3ccn(C)c3c1)C2 : 1.561
Cc1ccc2c(c1)C(=O)N(c1ccc3ccn(C)c3c1)C2 : 1.742
Cn1ccc2cc(N3Cc4c(N)cccc4C3=O)ccc21 : 1.094
O=C1c2cc3c(cc2CN1c1ccc2ncccc2c1)OCCO3 : 1.807
O=C1c2cc(Br)ccc2CN1c1ccc2sccc2c1 : 1.469
COc1ccc2c(c1)C(=O)N(c1ccc3c(c1)OCC(=O)N3)C2 : 1.375
Cc1cc2cc(N3Cc4ccc(S(C)(=O)=O)cc4C3=O)ccc2n1C : 1.227
COc1ccc2c(c1)C(=O)N(c1ccc3c(ccn3C)c1)C2 : 1.485
CC=Cc1ccc2c(c1)C(=O)N(c1ccc3c(ccn3C)c1)C2 : 1.54
COc1ccc2c(c1)C(=O)N(c1ccc3nccc(O)c3c1)C2 : 1.093

###

We begin with a simple list: items and their reported Fold Increase.
# Test system: SMN2-linked luciferase-reporter gene construct
# protocol: SMN Splice Reporter Assay (SMN2-linked luciferase reporter)
# Format: cell-based
# recorded-conditions: fold-increase of luciferase over baseline reading of transformed cells without any test compound
measure-name: Fold Increase

Cn1ccc2cc(N3Cc4ccc(Cl)cc4C3=O)ccc21 [Example 120599] : 1.407
CN(C)c1ccc2c(c1)C(=O)N(c1ccc3cc[nH]c3c1)C2 [Example 125600] : 1.405
Cc1cc2cc(N3Cc4ccc(N(C)C)cc4C3=O)ccc2n1C [Example 123707] : 1.635
Cc1cc2cc(N3Cc4ccc(N5CCCC5)cc4C3=O)ccc2n1C(C)C [Example 125603] : 0.995
Cc1cccc2c1CN(c1ccc3c(ccn3C)c1)C2=O [Example 120952] : 1.374
Cn1ccc2cc(N3Cc4ccc(-c5cccnc5)cc4C3=O)ccc21 [Example 122042] : 1.422
